Target: rSmTAChE (Schistosoma mansoni, UniProt A0A3Q0KMM5)
Sequence (A0A3Q0KMM5 27-661 limits assumed): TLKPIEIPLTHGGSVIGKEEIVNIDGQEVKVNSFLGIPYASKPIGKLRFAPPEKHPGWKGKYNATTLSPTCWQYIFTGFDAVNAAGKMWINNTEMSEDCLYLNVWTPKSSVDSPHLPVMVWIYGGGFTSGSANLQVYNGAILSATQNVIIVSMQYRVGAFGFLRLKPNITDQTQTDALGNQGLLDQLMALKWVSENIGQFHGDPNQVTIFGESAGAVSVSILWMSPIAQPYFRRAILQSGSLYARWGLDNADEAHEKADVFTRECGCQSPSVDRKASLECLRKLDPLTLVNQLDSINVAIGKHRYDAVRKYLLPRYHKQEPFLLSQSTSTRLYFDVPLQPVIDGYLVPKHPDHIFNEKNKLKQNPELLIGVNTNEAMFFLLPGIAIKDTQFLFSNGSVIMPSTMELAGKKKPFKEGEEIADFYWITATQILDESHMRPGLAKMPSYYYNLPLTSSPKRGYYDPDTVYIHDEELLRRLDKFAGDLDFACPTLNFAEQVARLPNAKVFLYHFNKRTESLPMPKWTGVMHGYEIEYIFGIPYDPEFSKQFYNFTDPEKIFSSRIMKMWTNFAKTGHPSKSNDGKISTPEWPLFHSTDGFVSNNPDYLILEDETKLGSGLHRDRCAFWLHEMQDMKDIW
Format: biochemical
Outcome measure: Data Mode (curve class), rSmTAChE

Molecule	Outcome measure	Result
COC(=O)[C@]12CCC(C)(C)C[C@@H]1[C@@H]1C(=O)C=C3[C@]4(C)C=C(C#N)C(=O)C(C)(C)[C@@H]4CC[C@@]3(C)[C@]1(C)CC2	Data Mode (curve class), rSmTAChE	decreasing
CCOc1nc2cccc(C(=O)OCc3oc(=O)oc3C)c2n1Cc1ccc(-c2ccccc2-c2noc(=O)[nH]2)cc1	Data Mode (curve class), rSmTAChE	decreasing
COc1ccc(C(Cl)=C(c2ccc(OC)cc2)c2ccc(OC)cc2)cc1	Data Mode (curve class), rSmTAChE	inactive
CC(C)c1onc(-c2c(Cl)cccc2Cl)c1COc1ccc(/C=C/c2cccc(C(=O)O)c2)c(Cl)c1 [GW-4064, reference compound]	Data Mode (curve class), rSmTAChE	decreasing
C[C@]12CC[C@@H]3c4ccc(O)cc4CC[C@H]3[C@@H]1CCC2=O	Data Mode (curve class), rSmTAChE	inactive
C[C@]12CC[C@@H]3c4ccc(O)cc4C[C@@H](CCCCCCCCC[S+]([O-])CCCC(F)(F)C(F)(F)F)[C@H]3[C@@H]1CC[C@@H]2O (some centres unmarked) [BRD-A85667082-001-13-5]	Data Mode (curve class), rSmTAChE	inactive
CCCCC(CC)CCC(CC(C)C)OS(=O)(=O)O (centres unmarked) [Sodium-tetradecyl-sulfate, reference compound]	Data Mode (curve class), rSmTAChE	decreasing
CCCCCCCCc1ccc(CCC(N)(CO)CO)cc1	Data Mode (curve class), rSmTAChE	inactive
C/C=C1\[C@H]2C=C(C)C[C@]1(N)c1ccc(=O)[nH]c1C2 [Huperzine A, reference compound]	Data Mode (curve class), rSmTAChE	decreasing

# input for lookup
Q: Quote Data Mode (curve class), rSmTAChE with test system rSmTAChE (Schistosoma mansoni, UniProt A0A3Q0KMM5) for Cc1cc(OCCCS(C)(=O)=O)cc(C)c1-c1cccc(COc2ccc3c(c2)OC[C@H]3CC(=O)O)c1 [TAK-875, reference compound]
A: decreasing
